Below: a set of entries, each annotated with reported Hepatotoxicity (steatosis).
MEASUREMENT_PARAMETERS: human
EXPERIMENTAL_ENDPOINT: Hepatotoxicity (steatosis)

| COMPOUND | VALUE_MEASURED |
| --- | --- |
| O=c1n(CC2CO2)c(=O)n(CC2CO2)n1CC1CO1 (stereo not drawn) [ANAXIRONE] | 0 |
| O=C(O)c1cn(C2CC2)c2cc(N3CCNCC3)c(F)cc2c1=O [CIPROFLOXACIN] | 1 |
| C[C@@H](O)[C@H]1C(=O)N2C(C(=O)O)=C(S[C@@H]3CN[C@H](C(=O)Nc4cccc(C(=O)O)c4)C3)[C@H](C)[C@H]12 | 0 |
| COC1=CC(=O)C[C@@H](C)[C@]12Oc1c(Cl)c(OC)cc(OC)c1C2=O [GRISEOFULVIN] | 0 |
| C[S+](CC[C@H](N)C(=O)[O-])C[C@H]1O[C@@H](n2cnc3c(N)ncnc32)[C@H](O)[C@@H]1O (stereo partly drawn) [ADEMETIONINE] | 0 |
| Oc1ncnc2[nH]ncc12 [ALLOPURINOL] | 4 |
| COC(=O)C1=C(C)NC(C)=C(C(=O)OCCN(C)Cc2ccccc2)C1c1cccc([N+](=O)[O-])c1 (stereo not drawn) [NICARDIPINE] | 1 |
| O=C(O)Cn1c(=O)n(Cc2ccc(Br)cc2F)c(=O)c2ccc(Cl)cc21 [ZENARESTAT] | 0 |
| COC(=O)C1=C(C)NC(C)=C(C(=O)OCC(C)C)C1c1ccccc1[N+](=O)[O-] (stereo not drawn) [NISOLDIPINE] | 0 |
| CC(C)(Oc1ccc(C2CC2(Cl)Cl)cc1)C(=O)O (stereo not drawn) [CIPROFIBRATE] | 0 |
| O=C(c1ccc(OCCN2CCCCC2)cc1)c1c(-c2ccc(O)cc2)sc2cc(O)ccc12 [RALOXIFENE] | 0 |
| NS(=O)(=O)c1cc2c(cc1Cl)NC(C(Cl)Cl)NS2(=O)=O (stereo not drawn) [TRICHLORMETHIAZIDE] | 0 |
| O=C(O)Cc1cn(-c2ccccc2)nc1-c1ccc(Cl)cc1 [LONAZOLAC] | 0 |
| C=CCNc1nc(NCC=C)nc(N2CCN(C(c3ccc(F)cc3)c3ccc(F)cc3)CC2)n1 [ALMITRINE] | 0 |
| C[C@@H]1CN(c2c(F)c(N)c3c(=O)c(C(=O)O)cn(C4CC4)c3c2F)C[C@H](C)N1 [SPARFLOXACIN] | 0 |
| CCN(CC)C(=O)C1(c2ccccc2)CC1CN (stereo not drawn) | 0 |
| CC(C)OC(=O)C(C)(C)Oc1ccc(C(=O)c2ccc(Cl)cc2)cc1 [FENOFIBRATE] | 0 |
| CN(C)CCCN1c2ccccc2CCc2ccc(Cl)cc21 [CLOMIPRAMINE] | 0 |
| CC(C(=O)O)c1ccc2c(c1)[nH]c1ccc(Cl)cc12 (stereo not drawn) [CARPROFEN] | 0 |
| Nc1ccc(S(=O)(=O)c2ccc(N)cc2)cc1 [DAPSONE] | 0 |
| C[C@]12CCC(=O)C=C1CC[C@@H]1[C@@H]2[C@@H](O)C[C@@]2(C)[C@H]1CC[C@]2(O)C(=O)CO [HYDROCORTISONE] | 10 |
| C[C@]1(O)CC[C@H]2[C@@H]3CCC4=CC(=O)CC[C@@H]4[C@H]3CC[C@@]21C [NORMETHANDRONE] | 0 |
| COCC(=O)Nc1c(I)c(C(=O)NCC(O)CO)c(I)c(C(=O)N(C)CC(O)CO)c1I (stereo not drawn) [IOPROMIDE] | 0 |
| Cc1ccc(S(=O)(=O)NC(=O)NN2CCCCCC2)cc1 [TOLAZAMIDE] | 0 |
| O=c1[nH]c(=O)n([C@@H]2O[C@H](CO)[C@@H](O)[C@@H]2F)cc1I [FIALURIDINE] | 1 |
| CN[C@@H]1[C@@H](O)[C@@H](O[C@@H]2[C@@H](O)[C@H](O[C@H]3OC(CN)=CC[C@H]3N)[C@@H](N)C[C@H]2N)OC[C@]1(C)O [SISOMICIN] | 0 |
| CCn1cc(C(=O)O)c(=O)c2cc(F)c(N3CCNCC3)cc21 [NORFLOXACIN] | 0 |
| C[C@H]1C[C@H]2[C@@H]3CCC4=CC(=O)C=C[C@]4(C)[C@@]3(Cl)[C@@H](O)C[C@]2(C)[C@@]1(O)C(=O)CO [BECLOMETHASONE] | 0 |
| Nc1nc(N)c2nc(-c3ccccc3)c(N)nc2n1 | 0 |
| COCCOC(=O)C1=C(C)NC(C)=C(C(=O)OC(C)C)C1c1cccc([N+](=O)[O-])c1 (stereo not drawn) [NIMODIPINE] | 0 |
| Cc1cnc(C(=O)NCCc2ccc(S(=O)(=O)NC(=O)NC3CCCCC3)cc2)cn1 [GLIPIZIDE] | 0 |
| O=C(N[C@H](CO)[C@H](O)c1ccc([N+](=O)[O-])cc1)C(Cl)Cl [CHLORAMPHENICOL] | 1 |
| CO[C@@H]1[C@H](OC(=O)/C=C/C=C/C=C/C=C/C(=O)O)CC[C@]2(CO2)[C@H]1[C@@]1(C)O[C@@H]1CC=C(C)C [FUMAGILLIN] | 0 |

---

MEASUREMENT_PARAMETERS: human, serum
Counter-ions that a name gives are not always drawn. Where a SMILES comes first, the peptide text is derived from it. Bridges are numbered along the chain shown (N, C = ends). [ ]: non-standard residue; d: D form. The star is where a group is joined. Threoninol(2S,3R) = C[C@@H](O)[C@H](CO)N*
EXPERIMENTAL_ENDPOINT: Hepatotoxicity (acute)

| COMPOUND | EXPERIMENTAL_ENDPOINT | VALUE_MEASURED |
| --- | --- | --- |
| CCNc1cccnc1N1CCN(C(=O)c2cc3cc(OC)ccc3[nH]2)CC1 [ATEVIRDINE MESYLATE] | Hepatotoxicity (acute) | 1 |
| CCN(CC)CCn1c(-c2ccccc2)noc1=N | Hepatotoxicity (acute) | 0 |
| CC(C)[C@H](N)C(=O)OCC(CO)OCn1cnc2c(=O)nc(N)[nH]c21 (stereo partly drawn) | Hepatotoxicity (acute) | 0 |
| CC(c1cc2ccccc2s1)N(O)C(N)=O (stereo not drawn) | Hepatotoxicity (acute) | 2 |
| CC(C)(C)C(=O)OCOC(=O)[C@@H]1N2C(=O)[C@@H](NC(=O)[C@H](N)c3ccccc3)[C@H]2SC1(C)C | Hepatotoxicity (acute) | 1 |
| CCc1oc2ccccc2c1C(=O)c1cc(Br)c(O)c(Br)c1 | Hepatotoxicity (acute) | 5 |
| NCC[C@H](O)C(=O)N[C@@H]1C[C@H](N)[C@@H](O[C@H]2O[C@H](CN)CC[C@H]2N)[C@H](O)[C@H]1O[C@H]1O[C@H](CO)[C@@H](O)[C@H](N)[C@H]1O | Hepatotoxicity (acute) | 0 |
| COc1ccccc1Oc1c(NS(=O)(=O)c2ccc(C(C)(C)C)cc2)nc(-c2ncccn2)nc1OCCO | Hepatotoxicity (acute) | 5 |
| CC(C)NCC(O)COc1cccc2ccccc12 (stereo not drawn) | Hepatotoxicity (acute) | 5 |
| COc1ccc2[nH]cc(CCNC(C)=O)c2c1 | Hepatotoxicity (acute) | 1 |
| CC1CN(c2cc3c(cc2F)c(=O)c(C(=O)O)cn3-c2ccc(F)cc2F)CCN1 (stereo not drawn) | Hepatotoxicity (acute) | 0 |
| Cc1nc(NS(=O)(=O)c2ccc(N)cc2)oc1C | Hepatotoxicity (acute) | 1 |
| CCO.CN1CCC[C@H]1c1cccnc1 | Hepatotoxicity (acute) | 3 |
| O=C(CCCCC(=O)Nc1c(I)cc(I)c(C(=O)O)c1I)Nc1c(I)cc(I)c(C(=O)O)c1I [IODIPAMIDE] | Hepatotoxicity (acute) | 6 |
| CC(C)(S)C(=O)N[C@@H](CS)C(=O)O | Hepatotoxicity (acute) | 0 |
| CN(C)CCCn1c2c(c3ccccc31)CCCCCC2 | Hepatotoxicity (acute) | 6 |
| C[C@@H](O)[C@H](CO)NC(=O)[C@@H]1CSSC[C@H](NC(=O)[C@H](N)Cc2ccccc2)C(=O)N[C@@H](Cc2ccccc2)C(=O)N[C@H](Cc2c[nH]c3ccccc23)C(=O)N[C@@H](CCCCN)C(=O)N[C@@H]([C@@H](C)O)C(=O)N1 (H-[dF]CF[dW]KTC-{Threoninol(2S,3R)}; disulfide 2-7) | Hepatotoxicity (acute) | 3 |
| NS(=O)(=O)OCCCCCCCOS(N)(=O)=O | Hepatotoxicity (acute) | 0 |
| CO/N=C(\C(=O)N[C@@H]1C(=O)N2C(C(=O)OCOC(=O)C(C)(C)C)=C(Cn3nnc(C)n3)CS[C@H]12)c1csc(N)n1 | Hepatotoxicity (acute) | 0 |
| CCCC1O[C@@H]2C[C@H]3[C@@H]4CCC5=CC(=O)C=C[C@]5(C)[C@H]4[C@@H](O)C[C@]3(C)[C@]2(C(=O)CO)O1 (stereo partly drawn) [BUDESONIDE] | Hepatotoxicity (acute) | 1 |
| CCN(CC)CCNC(=O)c1cc(Cl)c(N)cc1OC [METOCLOPRAMIDE] | Hepatotoxicity (acute) | 1 |
| NC(=O)c1cc[n+](CC2=C(C(=O)O)N3C(=O)[C@@H](NC(=O)[C@@H](c4ccccc4)S(=O)(=O)[O-])[C@H]3SC2)cc1 | Hepatotoxicity (acute) | 0 |
| CC(CCC(=O)O)C1CC[C@H]2[C@@H]3CC[C@@H]4C[C@H](O)CC[C@]4(C)[C@H]3CC[C@]12C (stereo partly drawn) | Hepatotoxicity (acute) | 0 |
| CNC(=O)OCc1cccc(COC(=O)NC)n1 [PYRICARBATE] | Hepatotoxicity (acute) | 9 |
| COc1ccc2c3c1O[C@H]1[C@@H](O)C=C[C@H]4[C@@H](C2)N(C)CC[C@@]341 | Hepatotoxicity (acute) | 3 |
| CC(C(=O)Nc1cc(-c2ccccc2)nn1-c1ccccc1)N(C)C (stereo not drawn) | Hepatotoxicity (acute) | 1 |
| C[C@H](CCC(=O)O)[C@H]1CC[C@H]2[C@@H]3[C@@H](O)C[C@@H]4C[C@H](O)CC[C@]4(C)[C@H]3CC[C@]12C | Hepatotoxicity (acute) | 1 |
| CC1(C)S[C@@H]2[C@H](NC(=O)[C@H](NC(=O)N3CCNC3=O)c3ccccc3)C(=O)N2[C@H]1C(=O)O | Hepatotoxicity (acute) | 0 |
| Cc1c(C)c2c(c(C)c1O)CCC(C)(COc1ccc(CC3SC(=O)NC3=O)cc1)O2 (stereo not drawn) | Hepatotoxicity (acute) | 36 |
| C[C@H](CCc1ccccc1)NC[C@H](O)c1ccc(O)c(C(N)=O)c1 | Hepatotoxicity (acute) | 1 |
| O=C(c1ccccc1)c1ccc2n1CCC2C(=O)O (stereo not drawn) | Hepatotoxicity (acute) | 1 |
| CC(C)NNC(=O)COc1ccc(Cl)cc1 [IPROCLOZIDE] | Hepatotoxicity (acute) | 3 |
| Cc1ncsc1CCCl | Hepatotoxicity (acute) | 3 |
